# maps each entry to its microsomal CLint
- EXPERIMENT: Clearance in mouse liver microsomes
- Assay type: ADME, Microsome

SMILES TEXT	READOUT UNIT	microsomal CLint
C[C@@H]1O[C@H](CNS(=O)(=O)c2ccc(CCn3cc(CN4CCN(c5cc6c(cc5F)c(=O)c(C(=O)O)cn6C5CC5)CC4)nn3)s2)[C@@H](O)[C@H](O)[C@@H]1O	µL/min/mg	10
O=C(Cn1cc(CN2CCN(c3cc4c(cc3F)c(=O)c(C(=O)O)cn4C3CC3)CC2)nn1)Nc1ccc(S[C@@H]2O[C@H](CO)[C@H](O)[C@H](O)[C@H]2O)cc1	µL/min/mg	10

* * *

Below, each of the compounds is paired with its reported inhibition at 48 h, 100 µM value.
- EXPERIMENT: Cytotoxicity against HEK293 cells assessed as growth inhibition at 100 uM after 48 hrs by MTT assay relative to control
- Type: cell-based
- MEASUREMENT CONTEXT: human, read-out: GI

SMILES TEXT	READOUT UNIT	inhibition at 48 h, 100 µM
O=C(Cn1cc(CN2CCN(c3cc4c(cc3F)c(=O)c(C(=O)O)cn4C3CC3)CC2)nn1)Nc1ccc(S[C@@H]2O[C@H](CO)[C@H](O)[C@H](O)[C@H]2O)cc1	%	8
O=C(O)c1cn(C2CC2)c2cc(N3CCNCC3)c(F)cc2c1=O	%	48
C[C@@H]1O[C@H](CNS(=O)(=O)c2ccc(CCn3cc(CN4CCN(c5cc6c(cc5F)c(=O)c(C(=O)O)cn6C5CC5)CC4)nn3)s2)[C@@H](O)[C@H](O)[C@@H]1O	%	11

* * *

Attribute: microsomal CLint
- EXPERIMENT: Clearance in human liver microsomes
- Assay type: ADME, Microsome

SMILES TEXT	READOUT UNIT	microsomal CLint
C[C@@H]1O[C@H](CNS(=O)(=O)c2ccc(CCn3cc(CN4CCN(c5cc6c(cc5F)c(=O)c(C(=O)O)cn6C5CC5)CC4)nn3)s2)[C@@H](O)[C@H](O)[C@@H]1O	µL/min/mg	15
O=C(Cn1cc(CN2CCN(c3cc4c(cc3F)c(=O)c(C(=O)O)cn4C3CC3)CC2)nn1)Nc1ccc(S[C@@H]2O[C@H](CO)[C@H](O)[C@H](O)[C@H]2O)cc1	µL/min/mg	10

* * *

- EXPERIMENT: Half life in human plasma at 40 uM measured up to 150 mins by LC-MS/MS analysis
- Type: ADME, cell-free
Collected half-life at […], 40 µM values appear next to each entry.

SMILES TEXT	half-life at […], 40 µM
O=C(Cn1cc(CN2CCN(c3cc4c(cc3F)c(=O)c(C(=O)O)cn4C3CC3)CC2)nn1)Nc1ccc(S[C@@H]2O[C@H](CO)[C@H](O)[C@H](O)[C@H]2O)cc1	> 2.5 h
C[C@@H]1O[C@H](CNS(=O)(=O)c2ccc(CCn3cc(CN4CCN(c5cc6c(cc5F)c(=O)c(C(=O)O)cn6C5CC5)CC4)nn3)s2)[C@@H](O)[C@H](O)[C@@H]1O	> 2.5 h

* * *

- EXPERIMENTAL TARGET: DNA gyrase (Escherichia coli, UniProt P0AES4+P0AES6)
- EXPERIMENT: Inhibition of Escherichia coli DNA gyrase using relaxed PBR322 plasmid DNA as substrate incubated for 30 mins by ethidium bromide staining based agarose gel electrophoresis method
pIC50: −log10 of the molar value.

SMILES TEXT	EXPERIMENTAL TARGET	pIC50
C#CCN1CCN(c2cc3c(cc2F)c(=O)c(C(=O)O)cn3C2CC2)CC1	DNA gyrase (Escherichia coli, UniProt P0AES4+P0AES6)	6.15
